# System: ST8814
# Test summary: relative IC50 (inflection point of fitted dose-response curve, CellTox-Green cytotoxicity, 72 h; top asymptote may be below 50%); higher = less potent
Measure: relative IC50

# count of solved cases: 3
Smiles input: CC(=O)Nc1ccc(C(=O)Nc2ccccc2N)cc1
relative IC50: > 1000 nM
//
Smiles input: CN(C)c1nc(N(C)C)nc(N(C)C)n1
relative IC50: > 10000 nM
//
Smiles input: CO[C@H](C(=O)[C@@H](O)[C@@H](C)O)[C@@H]1Cc2cc3cc(O[C@H]4C[C@@H](O[C@H]5C[C@@H](O)[C@H](O)[C@@H](C)O5)[C@@H](O)[C@@H](C)O4)c(C)c(O)c3c(O)c2C(=O)[C@H]1O[C@H]1C[C@@H](O[C@H]2C[C@@H](O[C@H]3C[C@](C)(O)[C@H](O)[C@@H](C)O3)[C@H](O)[C@@H](C)O2)[C@H](O)[C@@H](C)O1
relative IC50: > 10000 nM

List reported relative IC50 for each of these compounds:
1. C[C@]12O[C@H](C[C@]1(O)CO)n1c3ccccc3c3c4c(c5c6ccccc6n2c5c31)CNC4=O
2. C[C@]12C=CC(=O)C=C1CC[C@@H]1[C@@H]2[C@@H](O)C[C@@]2(C)[C@H]1CC[C@]2(O)C(=O)CO
3. c1ccc2c(CCNc3ccc(Nc4ccncc4)cc3)c[nH]c2c1
4. Cn1cc(C[C@@H](N)C(=O)O)c2ccccc21
5. CCOC(=O)CCNc1cc(N2CCc3ccccc3CC2)nc(-c2ccccn2)n1
6. CCc1cnn2c(NCc3ccc[n+]([O-])c3)cc(N3CCCC[C@H]3CCO)nc12
7. C[C@@H]1CCN(C(=O)CC#N)C[C@@H]1N(C)c1ncnc2[nH]ccc12

## Result
1. 290 nM
2. > 10000 nM
3. 865 nM
4. > 5000 nM
5. 15500 nM
6. 36.4 nM
7. > 5000 nM

List reported relative IC50 for each of these compounds:
1. CCCCC(=O)OCC(=O)[C@]1(O)Cc2c(O)c3c(c(O)c2[C@@H](O[C@H]2C[C@H](NC(=O)C(F)(F)F)[C@H](O)[C@H](C)O2)C1)C(=O)c1c(OC)cccc1C3=O
2. CC(=O)O[C@]1(C(C)=O)CC[C@H]2[C@@H]3C=C(C)C4=CC(=O)CC[C@]4(C)[C@H]3CC[C@@]21C

## Result
["> 5000 nM", "> 10000 nM"]

## Task # input compound: CCC1=C[C@@H]2CN(C1)Cc1c([nH]c3ccccc13)[C@@](C(=O)OC)(c1cc3c(cc1OC)N(C)[C@H]1[C@@](O)(C(=O)OC)[C@H](OC(C)=O)[C@]4(CC)C=CCN5CC[C@]31[C@@H]54)C2 ; wanted: its relative IC50
## Result 212 nM

====

# Tested on: S1507-2
# Test summary: relative IC50 (inflection point of fitted dose-response curve, CellTiter-Glo viability, 72 h; top asymptote may be below 50% inhibition); higher = less potent
Please respond with reported relative IC50 for every item in the list.
One number for each entry, in nM.

Smiles input: NC(=O)Nc1cc(-c2cccc(F)c2)sc1C(=O)N[C@H]1CCCNC1
relative IC50 / nM: 63.1

Now for a further compound.
## Task # input compound: C/C(=C\c1csc(C)n1)[C@@H]1C[C@@H]2O[C@]2(C)CCC[C@H](C)[C@H](O)[C@@H](C)C(=O)C(C)(C)[C@@H](O)CC(=O)O1 ; wanted: its relative IC50
## Result 3.52

====

# Tested on: YST-1
# Test summary: relative IC50 (inflection point of fitted dose-response curve, CellTiter-Glo viability, 72 h; top asymptote may be below 50% inhibition); higher = less potent
Measure: relative IC50

Smiles input: O=C(Nc1ccncc1)C(=O)c1cn(Cc2ccc(Cl)cc2)c2ccccc12
Measurement: 0.53 µM

List reported relative IC50 for each of these compounds:
1. COc1cc(Nc2ncc3c(n2)-c2ccc(Cl)cc2C(c2c(F)cccc2OC)=NC3)ccc1C(=O)O
2. CC(C)[C@@H](CS(=O)(=O)C(C)C)N1C(=O)[C@@](C)(CC(=O)O)C[C@H](c2cccc(Cl)c2)[C@H]1c1ccc(Cl)cc1
3. CN(C)/N=N/c1[nH]cnc1C(N)=O

## Result
1. 0.0311 µM
2. 0.19 µM
3. > 10 µM

====

# Test system: HS-Sch-2
# Test summary: % inhibition of CellTiter-Glo viability at highest tested concentration (72 h), relative to DMSO and benzethonium chloride controls; higher = more inhibition
Please respond with reported % inhibition for every item in the list.
Give bare numbers, in %.

# count of solved cases: 3
Compound: CNCc1ccc(-c2[nH]c3cc(F)cc4c3c2CCNC4=O)cc1 [Rucaparib] (max concentration tested 10000 nM)
% inhibition / %: 22.2
//
Compound: Cc1ncc(Cl)cc1NCc1ccc(C(=O)N[C@@H](CC2CCCC2)C(=O)NC2CC2)s1 (max concentration tested 5000 nM)
% inhibition / %: 12.8
//
Compound: O=C(Nc1nc2cccc(-c3ccc(CN4CCS(=O)(=O)CC4)cc3)n2n1)C1CC1 [Filgotinib] (max concentration tested 10000 nM)
% inhibition / %: 35.7

List reported % inhibition for each of these compounds:
1. C=CCn1c(=O)c2cnc(Nc3ccc(N4CCN(C)CC4)cc3)nc2n1-c1cccc(C(C)(C)O)n1 [MK1775] (max concentration tested 10000 nM)
2. CNC(=O)[C@@H](NC(=O)[C@H](CC(C)C)[C@H](O)C(=O)NO)C(C)(C)C [Marimastat] (max concentration tested 10000 nM)
3. Cn1cc(-c2cnn3c(N)c(Br)c([C@@H]4CCCNC4)nc23)cn1 [MK-8776] (max concentration tested 2500 nM)

## Result
1. 88.4
2. 17.1
3. 72

====

Please respond with reported relative IC50 for every item in the list.
# Tested on: S1507-2
# Test summary: relative IC50 (inflection point of fitted dose-response curve, CellTiter-Glo viability, 72 h; top asymptote may be below 50% inhibition); higher = less potent

Compound: COc1ccccc1S(=O)(=O)Nc1ccc2c(c1)CN(C)C(=O)N2
relative IC50: 1670 nM
//
Compound: O=C(O)CCCc1ccc(N(CCCl)CCCl)cc1
relative IC50: > 10000 nM
//
Compound: Cc1ccc(-c2cc(C(F)(F)F)nn2-c2ccc(S(N)(=O)=O)cc2)cc1
relative IC50: > 10000 nM
//
Compound: CO[C@H]1C[C@@H]2CC[C@@H](C)[C@@](O)(O2)C(=O)C(=O)N2CCCC[C@H]2C(=O)O[C@H]([C@H](C)C[C@@H]2CC[C@@H](OP(C)(C)=O)[C@H](OC)C2)CC(=O)[C@H](C)/C=C(\C)[C@@H](O)[C@@H](OC)C(=O)[C@H](C)C[C@H](C)/C=C/C=C/C=C/1C
relative IC50: 1.55 nM
//
Compound: c1cc(CN2CCCNCCNCCCNCC2)ccc1CN1CCCNCCNCCCNCC1
relative IC50: > 10000 nM

List reported relative IC50 for each of these compounds:
1. C[C@]12CC[C@@H]3c4ccc(O)cc4C[C@@H](CCCCCCCCC[S+]([O-])CCCC(F)(F)C(F)(F)F)[C@H]3[C@@H]1CC[C@@H]2O (some centres not stated)
2. O=C(O)CC[C@H]1CC[C@@](c2cc(F)ccc2F)(S(=O)(=O)c2ccc(Cl)cc2)CC1

## Result
1: > 1000 nM; 2: > 1000 nM

====

# Test system: ST8814
# Test summary: drug sensitivity score (DSS, CellTox-Green cytotoxicity, 72 h) (DSS (dimensionless)); higher = more cytotoxic; extreme values may be limits of the assay
Please respond with reported drug sensitivity score for every item in the list.
Give bare numbers.

# count of solved cases: 2
Compound: O=[N+]([O-])c1ccc2c(c1)S(=O)(=O)C=C2 [Stattic] (max concentration tested 50000 nM)
Measurement: 7.96
//
Compound: CC1=C2C[C@H]3[C@@H](CC=C4C[C@@H](O)CC[C@@]43C)[C@@H]2CC[C@]12O[C@@H]1C[C@H](C)CN[C@H]1[C@H]2C [Cyclopamine] (max concentration tested 10000 nM)
Measurement: 0

List reported drug sensitivity score for each of these compounds:
1. COc1cc2/c(=N/c3ccc(Br)cc3F)nc[nH]c2cc1OCC1CCN(C)CC1 [Vandetanib] (max concentration tested 1000 nM)
2. O=NN(CCCl)C(=O)NCCCl [Carmustine] (max concentration tested 10000 nM)
3. CCN(CC)CCCC(C)Nc1c2ccc(Cl)cc2nc2ccc(OC)cc12 (stereo unspecified) [Mepacrine aq] (max concentration tested 50000 nM)
4. COc1cc2c(Oc3ccc(NC(=O)C4(C(=O)Nc5ccc(F)cc5)CC4)cc3F)ccnc2cc1OCCCN1CCOCC1 [Foretinib] (max concentration tested 1000 nM)

## Result
0
0
14.7
2.96

List reported drug sensitivity score for each of these compounds:
1. CCCCCCCCc1ccc(CCC(N)(CO)CO)cc1 [Fingolimod] (max concentration tested 10000 nM)
2. CC1(C)CCC(c2ccc(Cl)cc2)=C(CN2CCN(c3ccc(C(=O)NS(=O)(=O)c4ccc(N[C@H](CCN5CCOCC5)CSc5ccccc5)c(S(=O)(=O)C(F)(F)F)c4)cc3)CC2)C1 [Navitoclax] (max concentration tested 10000 nM)

## Result
1: 5.09; 2: 5.52

List reported drug sensitivity score for each of these compounds:
1. CO[C@H](C(=O)[C@@H](O)[C@@H](C)O)[C@@H]1Cc2cc3cc(O[C@H]4C[C@@H](O[C@H]5C[C@@H](O)[C@H](O)[C@@H](C)O5)[C@@H](O)[C@@H](C)O4)c(C)c(O)c3c(O)c2C(=O)[C@H]1O[C@H]1C[C@@H](O[C@H]2C[C@@H](O[C@H]3C[C@](C)(O)[C@H](O)[C@@H](C)O3)[C@H](O)[C@@H](C)O2)[C@H](O)[C@@H](C)O1 [Plicamycin] (max concentration tested 10000 nM)
2. CCCC(CCC)C(=O)O [Valproic acid aq] (max concentration tested 1000000 nM)
3. COc1cc(OC2CCN(C)CC2)ccc1Nc1ncc2c(n1)n(C1CCCC1)c(=O)n2C [AZ 3146] (max concentration tested 10000 nM)

## Result
1. 0
2. 0.307
3. 5.94
